Test system: HCC-2998 colon
Method Description: NCI tumour cell line growth inhibition, 48 h; in the data active = GI50 below about 0.43 µM; inactive = the rest
Pick from 1.0 for active, 0.0 for inactive when you respond.

Query string: Lab log entry: "CCCCCCCCCCCCSC(=NC)NC" — outcome as called in the assay?
Result string: 0.0

Query string: Lab log entry: "COC(=O)c1cc2c3ccccc3n3c(=O)c4cc5cc(OC)c(N(S(=O)(=O)c6ccc(C)cc6)S(=O)(=O)c6ccc(C)cc6)cc5nc4c(n1)c23" — outcome as called in the assay?
Result string: 0.0

Query string: Lab log entry: "CCN(CC)CCCNc1nc2ccccc2c2c(=O)c3cc(Cl)ccc3sc12" — outcome as called in the assay?
Result string: 0.0

Query string: Lab log entry: "Cc1ccc(/C=C/C(=O)c2ccc(N)cc2)c(C)c1" — outcome as called in the assay?
Result string: 0.0

Query string: Lab log entry: "O=C(N1CCC(CN=c2cc3n(-c4ccc(Cl)cc4)c4ccccc4nc-3cc2Nc2ccc(Cl)cc2)CC1)N1CC1" — outcome as called in the assay?
Result string: 0.0

Query string: Lab log entry: "COc1cc(-n2cc(-c3ccc(F)cc3)[nH]c2=S)cc(OC)c1OC" — outcome as called in the assay?
Result string: 0.0

Query string: Lab log entry: "CCOCC(=O)N[C@H]1CCc2cc(OC(=O)COCC)c(OC)c(OC)c2-c2ccc(SC)c(=O)cc21" — outcome as called in the assay?
Result string: 1.0

Query string: Lab log entry: "COc1cc2c3c(n(CCCNC(=O)OCC4c5ccccc5-c5ccccc54)c(=O)c2cc1OC)-c1cc2c(cc1C3=O)OCO2" — outcome as called in the assay?
Result string: 0.0

All values here come from PubChem BioAssay (NCI).
